target: T1, MC1-R of B-16 mouse melanoma cells (mouse, UniProt Q01727 1-315); experiment: assay not described for this value
T1 construct: whole, on cells; Membrane preparation; also called MCR-1
T1 sequence (Q01727 whole entry): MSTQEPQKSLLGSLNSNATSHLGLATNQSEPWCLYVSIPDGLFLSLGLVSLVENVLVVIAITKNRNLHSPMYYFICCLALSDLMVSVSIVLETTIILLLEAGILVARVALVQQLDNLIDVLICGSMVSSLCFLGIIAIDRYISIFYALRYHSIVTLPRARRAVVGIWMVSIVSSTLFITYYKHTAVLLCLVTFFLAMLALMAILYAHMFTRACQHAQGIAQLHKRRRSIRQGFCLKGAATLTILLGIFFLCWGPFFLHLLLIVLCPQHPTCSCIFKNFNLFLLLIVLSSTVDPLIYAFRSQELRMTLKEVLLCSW
Square brackets hold non-standard residues; d marks the D form. Nle = CCCC[C@H](N)C(=O)O
QUANTITY_KIND: pKi
Scale: pKi equals -log10([C]), with [C] in mol/L.

// field: pKi; key: Ac-[Nle]AH[dF]RW-NH2 (Linear parent peptide, not complexed to a metal; also called parent melanocortin peptide) [Ac-Nle-Ala-His-D-Phe-Arg-Trp-NH2] ; value = 7.00
